Molecular target: CDK2/cyclin A (Homo sapiens, UniProt P24941)
Assay: CDK2/cyclin A kinase assay
pIC50: −log10 of the molar value.
readout label: pIC50

# smi, pIC50
records = [
    ("CN(C)CCC(=O)Nc1cccc(Nc2ncc(F)c(Nc3c(F)cccc3F)n2)c1", 6.52),
]

(A) CN1CCCN(c2cccc(Nc3ncc(F)c(Nc4c(F)cccc4F)n3)c2)CC1
(B) CC(C)(C)NCC(=O)Nc1cccc(Nc2ncc(F)c(Nc3c(F)cccc3F)n2)c1
Prompt line: Name the one with the greater pIC50 value, either A or B as given. Lab note: record the label of whichever item you select.
Response line: B
(B: 6.42, A: 6.02)

(P) CN(C)CC(=O)Nc1cccc(Nc2ncc(F)c(Nc3ccc(N(C)C)cc3)n2)c1
(Q) CN(C)CC(=O)Nc1cccc(Nc2ncc(F)c(NN3CCN(C)CC3)n2)c1
Prompt line: Name the one with the greater pIC50 value, either P or Q as given. Lab note: record the label of whichever item you select.
Response line: P
(P: 6.03, Q: 5.25)

(1) CN(C)CC(=O)Nc1cccc(Nc2ncc([N+](=O)[O-])c(Nc3c(F)cccc3F)n2)c1
(2) CN(C)CC(=O)Nc1cccc(Nc2ncc(F)c(Nc3c(Cl)cccc3Cl)n2)c1
Prompt line: I would appreciate it if you could say which entry, 1 or 2 , has the lower pIC50 value. Lab note: record the label of whichever item you select.
Response line: 2
(2: 5.80, 1: 6.11)

====

Assay system KB (nasopharyngeal carcinoma); read-out recorded as GI50.
readout label: GI50 (µM)

Consider the reported GI50 for these molecules:
# molecule, unit annotation, GI50
measured = [
    ("CC(C)(C)NCC(=O)Nc1cccc(Nc2ncc(F)c(Nc3c(F)cccc3F)n2)c1 [3b]", "µM", 3.27),
    ("CC(=O)c1ccc(Nc2nc(Nc3cccc(NC(=O)CN(C)C)c3)ncc2F)cc1 [2b]", "µM", 2.2),
    ("Cc1ccc(Nc2ncc(F)c(Nc3c(F)cccc3F)n2)cc1NC(=O)CN(C)C [3j]", "µM", 0.6),
    ("CN(C)CCNC(=O)c1cccc(Nc2ncc(F)c(Nc3c(F)cccc3F)n2)c1 [3e]", "µM", 3.82),
]

(a) CN(C)CC(=O)Nc1cccc(Nc2ncc(F)c(Nc3ccc(Cl)cc3)n2)c1 [2c]
(b) Cc1ccc(Nc2ncc(F)c(Nc3c(F)cccc3F)n2)cc1N1CCOCC1 [3o]
Prompt line: I would appreciate it if you could say which entry, a or b , has the lower GI50 value. Lab note: record the label of whichever item you select.
Response line: b
(b: 0.98 µM, a: 2.03 µM)

(1) COc1ccc(Nc2ncc(F)c(Nc3c(F)cccc3F)n2)cc1NC(=O)CN(C)C [3i]
(2) COc1ccc(Nc2nc(Nc3cccc(NC(=O)CN(C)C)c3)ncc2F)cc1 [2a]
(3) CN(C)CC(=O)Nc1cccc(Nc2ncc(F)c(Nc3c(Cl)cccc3Cl)n2)c1 [2f]
Prompt line: Output the entries ranked by GI50 from maximum down to minimum. When ranking, write the labels in the order the request describes.
Response line: 3, 1, 2

(1) CN(C)CC(=O)Nc1cccc(Nc2ncc(F)c(Nc3ccc(N(C)C)cc3)n2)c1 [2d]
(2) CN(C)CC(=O)Nc1cccc(Nc2ncc(F)c(Nc3c(F)cccc3F)n2)c1 [2e]
(3) CN(C)CC(=O)Nc1cccc(Nc2ncc(F)c(Nc3cc(F)cc(F)c3)n2)c1 [2g]
Prompt line: Sort the molecules on GI50; start with the lowest figure. When ranking, write the labels in the order the request describes.
Response line: 3, 1, 2
(3: 0.56 µM, 1: 3.08 µM, 2: 4.78 µM)

(a) CN(C)CC(=O)Nc1ccc(Nc2ncc(F)c(Nc3c(F)cccc3F)n2)cc1 [3k]
(b) CC(C)CC(=O)Nc1cccc(Nc2ncc(F)c(Nc3c(F)cccc3F)n2)c1 [3a]
Prompt line: I would appreciate it if you could say which entry, a or b , has the lower GI50 value. Lab note: record the label of whichever item you select.
Response line: b
(b: 0.59 µM, a: 3.8 µM)

(1) CN1CCCN(c2cccc(Nc3ncc(F)c(Nc4c(F)cccc4F)n3)c2)CC1 [3n]
(2) CN(C)CCC(=O)Nc1cccc(Nc2ncc(F)c(Nc3c(F)cccc3F)n2)c1 [3c]
Prompt line: I would appreciate it if you could say which entry, 1 or 2 , has the lower GI50 value. Lab note: record the label of whichever item you select.
Response line: 2
(2: 2.31 µM, 1: 4.44 µM)

(I) CN(C)CC(=O)Nc1cccc(Nc2ncc([N+](=O)[O-])c(Nc3c(F)cccc3F)n2)c1 [2i]
(II) CN1CCN(c2cccc(Nc3ncc(F)c(Nc4c(F)cccc4F)n3)c2)CC1 [3m]
Prompt line: I would appreciate it if you could say which entry, I or II , has the lower GI50 value. Lab note: record the label of whichever item you select.
Response line: II

====

Target: CDK9/cyclin T1 (Homo sapiens, UniProt P50750)
Sequence (P50750 whole entry): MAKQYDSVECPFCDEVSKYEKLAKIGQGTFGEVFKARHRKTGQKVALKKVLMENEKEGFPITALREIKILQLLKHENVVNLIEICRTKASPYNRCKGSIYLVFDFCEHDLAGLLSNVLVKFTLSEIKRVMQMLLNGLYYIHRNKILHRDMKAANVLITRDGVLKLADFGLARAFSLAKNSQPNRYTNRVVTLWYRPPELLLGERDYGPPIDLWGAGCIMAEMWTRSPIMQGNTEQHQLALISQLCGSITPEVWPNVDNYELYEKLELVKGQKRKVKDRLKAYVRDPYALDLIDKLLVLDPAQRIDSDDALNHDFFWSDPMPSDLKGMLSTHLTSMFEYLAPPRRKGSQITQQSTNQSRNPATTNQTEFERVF
Sequence (O60563 whole entry partner): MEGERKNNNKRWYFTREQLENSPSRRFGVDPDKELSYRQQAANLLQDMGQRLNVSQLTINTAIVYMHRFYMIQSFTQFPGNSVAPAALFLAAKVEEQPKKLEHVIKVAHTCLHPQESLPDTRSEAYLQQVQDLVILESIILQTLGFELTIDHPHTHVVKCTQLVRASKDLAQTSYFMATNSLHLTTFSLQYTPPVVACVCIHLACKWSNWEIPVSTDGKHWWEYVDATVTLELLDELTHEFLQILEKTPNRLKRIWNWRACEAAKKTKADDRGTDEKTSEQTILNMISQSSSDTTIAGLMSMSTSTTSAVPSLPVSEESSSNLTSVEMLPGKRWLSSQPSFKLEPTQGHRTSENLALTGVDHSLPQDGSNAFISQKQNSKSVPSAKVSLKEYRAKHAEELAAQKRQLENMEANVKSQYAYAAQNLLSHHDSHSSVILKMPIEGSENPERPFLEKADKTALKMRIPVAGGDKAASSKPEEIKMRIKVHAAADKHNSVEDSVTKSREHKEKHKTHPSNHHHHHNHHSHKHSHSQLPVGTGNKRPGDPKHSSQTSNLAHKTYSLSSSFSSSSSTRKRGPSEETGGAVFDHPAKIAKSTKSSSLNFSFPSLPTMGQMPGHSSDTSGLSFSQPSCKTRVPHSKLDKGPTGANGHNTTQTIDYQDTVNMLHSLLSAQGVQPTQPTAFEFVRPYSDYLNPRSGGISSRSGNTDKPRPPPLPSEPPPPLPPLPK
Assay: CDK9/cyclin T1 kinase assay
pIC50: −log10 of the molar value.
readout label: pIC50

(a) CN(C)CC(=O)Nc1cccc(Nc2ncc(F)c(NN3CCN(C)CC3)n2)c1 [2h]
(b) COc1ccc(Nc2nc(Nc3cccc(NC(=O)CN(C)C)c3)ncc2F)cc1 [2a]
Prompt line: I would appreciate it if you could say which entry, a or b , has the lower pIC50 value. Lab note: record the label of whichever item you select.
Response line: a

====

Target: CDK2/cyclin A (Homo sapiens, UniProt P24941)
Experiment: CDK2/cyclin A kinase assay
pIC50: −log10 of the molar value.
readout label: pIC50

Consider the reported pIC50 for these compounds:
# smi, pIC50
rows = [
    ("CC(C)CC(=O)Nc1cccc(Nc2ncc(F)c(Nc3c(F)cccc3F)n2)c1", 5.96),
    ("Cc1ccc(Nc2ncc(F)c(Nc3c(F)cccc3F)n2)cc1N1CCOCC1", 5.25),
    ("CN(C)CCNC(=O)c1cccc(Nc2ncc(F)c(Nc3c(F)cccc3F)n2)c1", 6.12),
    ("CC(=O)c1ccc(Nc2nc(Nc3cccc(NC(=O)CN(C)C)c3)ncc2F)cc1", 6.11),
    ("CN1CCN(c2cccc(Nc3ncc(F)c(Nc4c(F)cccc4F)n3)c2)CC1", 6.33),
]

(a) COc1ccc(Nc2nc(Nc3cccc(NC(=O)CN(C)C)c3)ncc2F)cc1
(b) CN(C)CC(=O)Nc1cccc(Nc2ncc(F)c(Nc3ccc(Cl)cc3)n2)c1
Prompt line: Name the one with the greater pIC50 value, either a or b as given. Lab note: record the label of whichever item you select.
Response line: a
(a: 6.49, b: 6.04)

(a) CN(C)CC(=O)Nc1cccc(Nc2ncc(F)c(Nc3cc(F)cc(F)c3)n2)c1
(b) CN1CCC(C(=O)Nc2cccc(Nc3ncc(F)c(Nc4c(F)cccc4F)n3)c2)CC1
Prompt line: I would appreciate it if you could say which entry, a or b , has the lower pIC50 value. Lab note: record the label of whichever item you select.
Response line: a

====

Biological target: CDK9/cyclin T1 (Homo sapiens)
Assay: CDK9/cyclin T1 kinase assay
pIC50: −log10 of the molar value.
readout label: pIC50

Consider the reported pIC50 for these compounds:
# smi, target of assay, pIC50
records = [
    ("CN(C)CC(=O)Nc1cccc(Nc2ncc([N+](=O)[O-])c(Nc3c(F)cccc3F)n2)c1", "CDK9/cyclin T1 (Homo sapiens)", 6.32),
    ("CN(C)CC(=O)Nc1cccc(Nc2ncc(F)c(Nc3cc(F)cc(F)c3)n2)c1", "CDK9/cyclin T1 (Homo sapiens)", 6.31),
    ("CC(C)CC(=O)Nc1cccc(Nc2ncc(F)c(Nc3c(F)cccc3F)n2)c1", "CDK9/cyclin T1 (Homo sapiens)", 6.32),
]

(A) CN(C)CC(=O)Nc1cccc(Nc2ncc(F)c(Nc3c(Cl)cccc3Cl)n2)c1
(B) CC(C)(C)NCC(=O)Nc1cccc(Nc2ncc(F)c(Nc3c(F)cccc3F)n2)c1
Prompt line: Name the one with the greater pIC50 value, either A or B as given. Lab note: record the label of whichever item you select.
Response line: B

Entry source: paper PMC5890689
